Target: UniProtKB A0A024AXB9
Sequence (A0A024AXB9 whole entry): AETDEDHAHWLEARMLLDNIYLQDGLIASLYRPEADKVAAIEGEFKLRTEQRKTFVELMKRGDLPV
Test: Inhibition of Zika virus NS2B-NS3 protease using Bz-Nle-Lys-Lys-Arg-AMC as substrate preincubated for 10 mins followed by substrate addition and measured for 70 secs by fluorophotometric analysis
Property Label: Ki
Lab note: write values as number then unit, every time.

Quick check: Ki of COc1cc(CN2CC(O)C2)ccc1OCC(O)CN1CCC(O)CC1 (stereo unspecified) ?
11.5 µM

----------
Molecular target: Genome polyprotein (West Nile virus, UniProt P06935)
Sequence (P06935 1371-1501 limits assumed): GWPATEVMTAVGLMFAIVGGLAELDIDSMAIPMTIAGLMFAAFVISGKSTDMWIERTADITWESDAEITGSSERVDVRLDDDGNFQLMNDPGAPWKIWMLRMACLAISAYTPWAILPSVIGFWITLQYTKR
Sequence (P06935 1502-2120 limits assumed): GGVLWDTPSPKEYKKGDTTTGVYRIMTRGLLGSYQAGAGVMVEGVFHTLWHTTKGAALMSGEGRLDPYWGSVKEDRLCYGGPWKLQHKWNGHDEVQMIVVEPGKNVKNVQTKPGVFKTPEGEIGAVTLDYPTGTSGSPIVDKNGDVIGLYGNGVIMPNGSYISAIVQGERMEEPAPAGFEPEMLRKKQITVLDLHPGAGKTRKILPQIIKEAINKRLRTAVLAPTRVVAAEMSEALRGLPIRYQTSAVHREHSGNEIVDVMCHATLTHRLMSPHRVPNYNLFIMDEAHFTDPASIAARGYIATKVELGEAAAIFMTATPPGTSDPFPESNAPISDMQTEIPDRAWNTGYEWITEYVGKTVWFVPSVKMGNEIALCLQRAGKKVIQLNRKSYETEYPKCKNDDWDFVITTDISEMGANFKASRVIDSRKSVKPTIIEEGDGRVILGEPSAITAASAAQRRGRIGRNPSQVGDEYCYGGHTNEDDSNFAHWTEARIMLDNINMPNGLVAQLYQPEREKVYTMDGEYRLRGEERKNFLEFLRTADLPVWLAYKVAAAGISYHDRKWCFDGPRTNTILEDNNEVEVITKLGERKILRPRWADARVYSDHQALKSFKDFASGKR
Property Label: pKi
Conceptually, pKi converts a concentration in mol/L into minus its log10.

Quick check: pKi of COc1cc(CN2CC(O)C2)ccc1OCC(O)CN1CCC(O)CC1 (stereo unspecified) ?
5.13

----------
Experiment: Inhibition of N-terminal His6-tagged DENV2 NS2B-NS3 protease using Boc-Gly-Lys-Arg-AMC33 as substrate measured for 600 secs by fluorescence based assay
Parameters: species or system dengue virus type 2
Property Label: Ki

Quick check: Ki of Cc1ccc(C(=O)NCC(O)CN2CCCC2)cc1OCCN (stereo unspecified) ?
90 nM
